Measurement label: log10(IC50) (log10 of the value in µM)
Please note: log10 values; quantity IC50; unit µM.

Query :: Provide the documented log10(IC50) with MMP-9 (Homo sapiens) as the system for O=C(Nc1ccc(S(=O)(=O)NC(P(=O)(O)O)P(=O)(O)O)cc1)c1cccc2ccccc12 [compound 12]
Sequence (P14780 107-444 limits assumed): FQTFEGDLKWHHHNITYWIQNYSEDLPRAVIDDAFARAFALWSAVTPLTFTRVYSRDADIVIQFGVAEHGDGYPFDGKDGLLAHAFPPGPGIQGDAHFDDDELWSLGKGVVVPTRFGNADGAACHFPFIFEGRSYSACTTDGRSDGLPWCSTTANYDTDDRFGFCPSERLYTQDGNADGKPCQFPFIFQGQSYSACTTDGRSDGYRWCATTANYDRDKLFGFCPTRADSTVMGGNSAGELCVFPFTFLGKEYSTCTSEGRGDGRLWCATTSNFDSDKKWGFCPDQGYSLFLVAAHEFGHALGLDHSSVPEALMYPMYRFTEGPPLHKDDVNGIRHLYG
Result :: 1.33

Query :: Item O=C(Nc1cccc(S(=O)(=O)NC(P(=O)(O)O)P(=O)(O)O)c1)c1ccccc1 [compound 7] with MMP-9 (Homo sapiens) - log10(IC50)?
Result :: 1.70

Query :: Reported log10(IC50) for MMP-9 (Homo sapiens), given O=C1c2ccccc2C(=O)N1c1ccc(S(=O)(=O)NC(P(=O)(O)O)P(=O)(O)O)cc1 [compound 5] ?
Result :: 1.18

Query :: So what log10(IC50) did O=C(Nc1ccc(S(=O)(=O)NC(P(=O)(O)O)P(=O)(O)O)cc1)c1ccc([N+](=O)[O-])cc1 [compound 11] get with MMP-9 (Homo sapiens)?
Result :: -0.37

Query :: Can you look up log10(IC50) on MMP-9 (Homo sapiens) for O=C(Nc1ccc(S(=O)(=O)NC(P(=O)(O)O)P(=O)(O)O)cc1)c1ccc(Br)cc1 [compound 9] ?
Result :: -1.06
